Entries and their log10 of EC50 values follow.
Target: UniProtKB P41145
Test: κ-opioid receptor [35S]GTPγS functional assay, U-2 OS cells
Type: biochemical
Settings: κ GTP, read-out: Activity Response κ EC50 (nM) [mean ± SEM]
Note: values are log10 of EC50 expressed in nM.

CCC(=O)N[C@H]1C[C@@]2(O)[C@H]3Cc4ccc(O)cc4[C@@]2(CCN3CC2CC2)CC1=O = 1.16
O=C(N[C@H]1C[C@@]2(O)[C@H]3Cc4ccc(O)cc4[C@@]2(CCN3CC2CC2)CC1=O)C1CC1 = 1.10
CC(C)CCCC(=O)N[C@H]1C[C@@]2(O)[C@H]3Cc4ccc(O)cc4[C@@]2(CCN3CC2CC2)CC1=O = 0.41
CC(C)CCC(=O)N[C@H]1C[C@@]2(O)[C@H]3Cc4ccc(O)cc4[C@@]2(CCN3CC2CC2)CC1=O = 0.21
CN1CC[C@]23CC(=O)[C@@H](CC(=O)O)C[C@@]2(O)[C@H]1Cc1ccc(O)cc13 = 2.98

Item under review: COc1ccc2c(c1)[C@]13CCN(CC4CC4)[C@H](C2)[C@]1(O)C[C@H](CCO)C(=O)C3 . Reported log10 of EC50?
3.01

Item under review: COc1ccc2c(c1)[C@]13CCN(CC4CC4)[C@H](C2)[C@]1(O)C[C@H](NC(=O)C(C)C)C(=O)C3 . Reported log10 of EC50?
3.86

Item under review: COCC[C@H]1C[C@@]2(O)[C@H]3Cc4ccc(OC)cc4[C@@]2(CCN3CC2CC2)CC1=O . Reported log10 of EC50?
3.11

* * *

Target: μ-opioid receptors (Homo sapiens (Human), UniProt P35372)
Assay: μ-opioid receptor [35S]GTPγS functional assay, U-2 OS cells
Assay type: biochemical
Conditions: μ GTP, read-out: Activity Response μ EC50 (nM) [mean ± SEM]
readout.kind: EC50 (nM)
Respond numerically; units are nM and should not be typed.

COc1ccc2c(c1)[C@]13CCN(C)[C@H](C2)[C@]1(O)C[C@H](CC(=O)N1CCOCC1)C(=O)C3 [Compound 79] = 11700

Notebook entry, μ-opioid receptors (Homo sapiens (Human), UniProt P35372) assay: EC50 of COc1ccc2c(c1)[C@]13CCN(CC4CC4)[C@H](C2)[C@]1(O)C[C@H](CCOCc1ccccc1)C(=O)C3 [Compound 48] = ?
38.6

Notebook entry, μ-opioid receptors (Homo sapiens (Human), UniProt P35372) assay: EC50 of CC(C)[C@@H]1C[C@H]2[C@H]3Cc4ccc(O)cc4[C@@]2(CCN3CC2CC2)CC1=O [Compound 73] = ?
0.84

Notebook entry, μ-opioid receptors (Homo sapiens (Human), UniProt P35372) assay: EC50 of C[C@H](NC(=O)C[C@H]1C[C@@]2(O)[C@H]3Cc4ccc(O)cc4[C@@]2(CCN3C)CC1=O)C(=O)O [Compound 75] = ?
1150

Notebook entry, μ-opioid receptors (Homo sapiens (Human), UniProt P35372) assay: EC50 of CC(C)CCCC(=O)N[C@H]1C[C@@]2(O)[C@H]3Cc4ccc(O)cc4[C@@]2(CCN3CC2CC2)CC1=O [Compound 31] = ?
9.65

Notebook entry, μ-opioid receptors (Homo sapiens (Human), UniProt P35372) assay: EC50 of O=C(N[C@H]1C[C@@]2(O)[C@H]3Cc4ccc(O)cc4[C@@]2(CCN3CC2CC2)CC1=O)c1ccccc1 [Compound 36] = ?
12.7

* * *

Target: recombinant human kappa opioid receptor (κ) (Homo sapiens (Human), UniProt P41145)
Assay: κ-opioid receptor radioligand dose displacement binding assay ([3H]-U69,593)
Conditions: mean ± SEM, read-out: Binding Affinity Opioid Receptor Ki (nM) [mean ± SEM] κ
// assign T if Ki falls strictly below 100 nM, else F (ties count as F)

Solved cases below.
COc1ccc2c(c1)[C@]13CCN(CC4CC4)[C@H](C2)[C@]1(O)C[C@H](CC(=O)O)C(=O)C3 [Compound 8] = F
COCC[C@H]1C[C@@]2(O)[C@H]3Cc4ccc(OC)cc4[C@@]2(CCN3CC2CC2)CC1=O [Compound 49] = F
COc1ccc2c(c1)[C@]13CCN(CC4CC4)[C@H](C2)[C@]1(O)CC(CC(=O)O)(CC(=O)O)C(=O)C3 [Compound 10] = F

Please turn your attention to the following entry.
Strictly below 100 nM in Ki? CC(C)C[C@H](NC(=O)C[C@H]1C[C@@]2(O)[C@H]3Cc4ccc(O)cc4[C@@]2(CCN3CC2CC2)CC1=O)C(=O)O [Compound 19]
F

* * *

Biological target: UniProt P35372
Assay: μ-opioid receptor [35S]GTPγS functional assay, U-2 OS cells
Assay type: biochemical
Settings: μ GTP, read-out: Activity Response μ EC50 (nM) [mean ± SEM]
Entries and their EC50 values follow.

Observe how each entry below is paired with its result.
CC(C)C(=O)N[C@H]1C[C@@]2(O)[C@H]3Cc4ccc(O)cc4[C@@]2(CCN3CC2CC2)CC1=O = > 200000 nM
O=C1C[C@]23CCN(CC4CC4)[C@H](Cc4ccc(O)cc42)[C@]3(O)C[C@@H]1CC1CCCC1 = > 200000 nM
CC(C)C[C@H]1C[C@@]2(O)[C@H]3Cc4ccc(O)cc4[C@@]2(CCN3CC2CC2)CC1=O = > 200000 nM
COc1ccc2c(c1)[C@]13CCN(C)[C@H](C2)[C@]1(O)C[C@H](CC(=O)N1CCCCC1)C(=O)C3 = 16700 nM
CC(=O)N[C@H]1C[C@@]2(O)[C@H]3Cc4ccc(O)cc4[C@@]2(CCN3CC2CC2)CC1=O = > 200000 nM
COc1ccc2c(c1)[C@]13CCN(C)[C@H](C2)[C@]1(O)C[C@H](CCOCc1ccccc1)C(=O)C3 = 148 nM

Item under review: COc1ccc2c(c1)[C@]13CCN(CC4CC4)[C@H](C2)[C@]1(O)C/C(=C\CC(C)C)C(=O)C3 . Reported EC50?
> 200000 nM

* * *

Entries and their Emax values follow.
Molecular target: UniProt:P41145
Test: κ-opioid receptor [35S]GTPγS functional assay, U-2 OS cells
Format: biochemical
Settings: κ GTP, relative to U69,593, read-out: Activity Response κ Emax (%)
Respond numerically; units are % and should not be typed.

COc1ccc2c(c1)[C@]13CCN(CC4CC4)[C@H](C2)[C@]1(O)C[C@H](O)C(=O)C3 = 106

Item under review: COc1ccc2c(c1)[C@]13CCN(C)[C@H](C2)[C@]1(O)C[C@H](CC(=O)O)C(=O)C3 . Reported Emax?
84.3

Item under review: CC(C)CCC(=O)N[C@H]1C[C@@]2(O)[C@H]3Cc4ccc(O)cc4[C@@]2(CCN3CC2CC2)CC1=O . Reported Emax?
97.7

Item under review: CCC(=O)N[C@H]1C[C@@]2(O)[C@H]3Cc4ccc(O)cc4[C@@]2(CCN3CC2CC2)CC1=O . Reported Emax?
98.7

Item under review: O=C1C[C@]23CCN(CC4CC4)[C@H](Cc4ccc(O)cc42)[C@]3(O)C[C@@H]1CCO . Reported Emax?
88.2

Item under review: CC(C)[C@@H]1C[C@H]2[C@H]3Cc4ccc(O)cc4[C@@]2(CCN3CC2CC2)CC1=O . Reported Emax?
101

Item under review: COc1ccc2c(c1)[C@]13CCN(CC4CC4)[C@H](C2)[C@]1(O)C[C@H](NC(=O)C(C)C)C(=O)C3 . Reported Emax?
104

* * *

Entries and their EC50 values follow.
Biological target: UniProt P41145
Test: κ-opioid receptor [35S]GTPγS functional assay, U-2 OS cells
Assay type: biochemical
Conditions: κ GTP, read-out: Activity Response κ EC50 (nM) [mean ± SEM]
Respond numerically; units are nM and should not be typed.

CN1CC[C@]23CC(=O)[C@@H](CC(=O)N4CCC(O)CC4)C[C@@]2(O)[C@H]1Cc1ccc(O)cc13 = 6510
COc1ccc2c(c1)[C@]13CCN(CC4CC4)[C@H](C2)[C@]1(O)C[C@H](CCOCc1ccccc1)C(=O)C3 = 225
COc1ccc2c(c1)[C@]13CCN(CC4CC4)[C@H](C2)[C@]1(O)C/C(=C\CC(C)C)C(=O)C3 = 3070
COc1ccc2c(c1)[C@]13CCN(CC4CC4)[C@H](C2)[C@@H]1C[C@@H](C(C)C)C(=O)C3 = 303
CC(C)C(=O)N[C@H]1C[C@@]2(O)[C@H]3Cc4ccc(O)cc4[C@@]2(CCN3CC2CC2)CC1=O = 24.7
CC(C)[C@@H]1C[C@H]2[C@H]3Cc4ccc(O)cc4[C@@]2(CCN3CC2CC2)CC1=O = 1.92

// switching to the query compound
Item under review: O=C1C[C@]23CCN(CC4CC4)[C@H](Cc4ccc(O)cc42)[C@]3(O)C[C@@H]1CC1CCCCC1 . Reported EC50?
4.01
